- Measurement Protocol: Chemical stability assessment of peptides (relative purity loss)
- Type: physicochemical
- Condition Parameters: 50 mM phosphate buffer pH 6.5 + acetonitrile (1:1); 24 hours at 37° C.
Positions of bridges follow the written chain, without caps; N, C: chain ends. Non-standard residues stand in square brackets, D forms with d. Residues, ends and D or L forms follow the SMILES beside them. *: point of attachment. Trp(7-Me) = Cc1cccc2c(C[C@H](N)C(=O)O)c[nH]c12; 2Nal = N[C@@H](Cc1ccc2ccccc2c1)C(=O)O; Me2NCH2CH2 = CN(C)CC*; Aib = CC(C)(N)C(=O)O; Ava = NCCCCC(=O)O; βAla = NCCC(=O)O
Readout Name: Chemical stability (relative purity loss) Buffer pH 6.5

CC(=O)NCCCC[C@@H]1NC(=O)[C@H](Cc2c[nH]c3c(C)cccc23)NC(=O)[C@H]([C@@H](C)O)NC(=O)[C@H](CC(N)=O)NC(=O)[C@@H]2CSSC[C@H](NC1=O)C(=O)N[C@@H](Cc1ccc(OCCN(C)C)cc1)C(=O)N[C@@H](Cc1ccc3ccccc3c1)C(=O)NC(C)(C)C(=O)N[C@H](C(=O)N[C@@H](CC(N)=O)C(=O)N[C@@H](Cc1c[nH]cn1)C(=O)NCCC(N)=O)CCC(=O)NCCCCC(=O)N2 [compound 48] ([Ava]CNT[Trp(7-Me)]K(Ac)CY(Me2NCH2CH2)[2Nal][Aib]ENH[βAla]-NH2; disulfide 2-7; lactam N-11) = 1.3%

Next molecule, Chemical stability (relative purity loss) Buffer pH 6.5 to be filled in.
Given COc1ccc(C[C@@H]2NC(=O)[C@@H]3CSSC[C@H](NC(=O)CCC(=O)NCCCC[C@@H](C(=O)N[C@@H](CC(N)=O)C(=O)N[C@@H](CC(N)=O)C(N)=O)NC(=O)C(C)(C)NC(=O)[C@H](Cc4ccc5ccccc5c4)NC2=O)C(=O)N[C@@H](CC(N)=O)C(=O)N[C@@H]([C@@H](C)O)C(=O)N[C@@H](Cc2c[nH]c4ccccc24)C(=O)N[C@@H](CCC(N)=O)C(=O)N3)cc1 , respond with its Chemical stability (relative purity loss) Buffer pH 6.5.
0.2%

Origin of measurements: patent US20260258084A1
